- Test system: NCI-H520
- experimental-protocol: relative viability (nuclei count vs DMSO), 5 days (fraction); higher = more cells survive
- test-settings: first compound 0.1265 µM
readout-name: relative viability
Answers are plain numbers.

compound	target-of-assay	relative viability
O=C(O)c1ccc(-c2c[nH]c3ncc(-c4ccccc4)cc23)cc1C1CCCC1 + CC(=O)c1c(C)c2cnc(Nc3ccc(N4CCNCC4)cn3)nc2n(C2CCCC2)c1=O [Palbociclib] (partner 0.5 µM)	NCI-H520	0.217
O=C(O)c1ccc(-c2c[nH]c3ncc(-c4ccccc4)cc23)cc1C1CCCC1 + CS(=O)(=O)CCNCc1ccc(-c2ccc3ncnc(Nc4ccc(OCc5cccc(F)c5)c(Cl)c4)c3c2)o1 [Lapatinib] (partner 2 µM)	NCI-H520	0.858
O=C(O)c1ccc(-c2c[nH]c3ncc(-c4ccccc4)cc23)cc1C1CCCC1 + COc1cc2c(Oc3ccc(NC(=O)C4(C(=O)Nc5ccc(F)cc5)CC4)cc3F)ccnc2cc1OCCCN1CCOCC1 [Foretinib] (partner 0.25 µM)	NCI-H520	0.923

[ask] Supply measured relative viability of O=C(O)c1ccc(-c2c[nH]c3ncc(-c4ccccc4)cc23)cc1C1CCCC1 + C[C@@H](Oc1cc(-c2cnn(C3CCNCC3)c2)cnc1N)c1c(Cl)ccc(F)c1Cl [Crizotinib] (partner 1 µM) in your reply.
[reply] 1.02
